- System: TSSK1B
- Conditions used: concentration: 1 μM,replicates: in singlicate; n = 1;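 further: KINOMEscan kinase panel screen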
Assay endpoint: %Inh (%)
Expressed in %, but write only the number.

Consider the worked cases shown below.
COc1cc(Nc2nccc(N3CCC(NC(=O)c4cccc(C#N)c4)C3)n2)cc(OC)c1OC (stereo not drawn) [GSK1379751]; 10
O=C(Nc1cccc(Oc2ccc3nccn3n2)c1)Nc1cccc(C(F)(F)F)c1; 13

Can you share its %Inh? I mean this molecule: "Cn1ccc2ncnc(Oc3ccc(NC(=O)Nc4ccnc(C(F)(F)F)c4)c(Cl)c3)c21"
0

----------
Listed compounds paired with reported %Inh
- System: CDK4
- Conditions used: concentration: 1 μM,replicates: in singlicate; n = 1
Expressed in %, but write only the number.

Consider the worked cases shown below.
CC(=O)Nc1ccc(-c2cc3ncnc(SCC(=O)O)c3s2)cc1; 0
c1ccc(Oc2ccc(Nc3ccnc4ccc(-c5ccccn5)cc34)cc2)cc1 [GW407034]; 0

Can you share its %Inh? I mean this compound: Cl.Nc1n[nH]c2cc(-c3ccccn3)ccc12 [GSK2189892]
0

Can you share its %Inh? I mean this compound: CC(C(=O)NC1CCN(c2ccnc(Nc3ccc(F)cc3)n2)C1)c1ccc(Cl)cc1 (stereo not drawn) [GSK1379713]
0

Can you share its %Inh? I mean this compound: "Cn1ccc2ncnc(Oc3ccc(NC(=O)Nc4cccc(C(F)(F)F)c4)c(F)c3)c21"
0

Can you share its %Inh? I mean this compound: CN1CCN(CCCNc2nccc(-c3c(-c4ccc(F)cc4)nn4cc(C(N)=O)ccc34)n2)CC1 [GW622475]
20
